Biological target: T1, HLA-A2 / homologous peptide P2RY8 complex on T2 cells (human)
T1 construct: whole, on cells; also called T2 cells supplemented with homologous peptide P2RY8
Assay: flow cytometry on peptide-pulsed T2 cells, scFv 100 nM;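 also: scFv binding read as gMFI and normalized to the level of HLA/peptide complex displayed on T2 cells, with homologous 9-mer peptides used to probe specificity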
measured endpoint: standardized gMFI
One number for each entry.

Before answering, review these 3 worked examples.
| binder | measured endpoint | reported |
| --- | --- | --- |
| NYA-1163 (scFv) scFv: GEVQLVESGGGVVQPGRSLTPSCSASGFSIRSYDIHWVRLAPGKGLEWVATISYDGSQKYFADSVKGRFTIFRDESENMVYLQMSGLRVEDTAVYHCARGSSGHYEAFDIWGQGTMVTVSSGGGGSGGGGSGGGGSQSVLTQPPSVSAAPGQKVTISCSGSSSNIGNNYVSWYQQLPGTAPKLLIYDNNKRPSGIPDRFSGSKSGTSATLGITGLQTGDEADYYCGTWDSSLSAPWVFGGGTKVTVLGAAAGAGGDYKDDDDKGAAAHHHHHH | standardized gMFI | 0.69 |
| NYA-2143 (scFv) scFv: GEVQLVESGGGVVQPGRSLTPSCSASGFSIRSYDIHWVRLAPGKGLEWVATISYDGSQKYFADSVKGRFTIFRDESENMVYLQMSGLRVEDTAVYHCARGSSGHYEAFDIWGQGTMVTVSSGGGGSGGGGSGGGGSQSVLTQPPSVSAAPGQKVTISCSGSSSNIGNWYVSWYQRLPGTAPKLLIYDNNKRPSGIPDRFSGSKSGTSATLGITGLQTGDEADYYCGTWDSSLSAPWVFGGGTKVTVLGAAAGAGGDYKDDDDKGAAAHHHHHH | standardized gMFI | 0.69 |
| NYA-2044 (scFv, also called NYA-2044 tag adduct) scFv: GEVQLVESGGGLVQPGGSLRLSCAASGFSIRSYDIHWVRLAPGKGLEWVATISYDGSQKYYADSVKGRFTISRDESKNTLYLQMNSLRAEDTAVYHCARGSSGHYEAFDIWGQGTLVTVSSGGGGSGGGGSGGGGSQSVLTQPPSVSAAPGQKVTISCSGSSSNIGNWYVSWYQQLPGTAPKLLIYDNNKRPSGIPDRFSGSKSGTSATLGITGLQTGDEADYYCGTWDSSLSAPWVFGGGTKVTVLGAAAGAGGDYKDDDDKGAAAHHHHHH | standardized gMFI | 0.72 |

Input: // query standardized gMFI value for entry NYA-0001 (scFv, also called NYA-0001 tag adduct; NY-R119 expressed in a cultured mammalian cell) scFv: GEVQLVESGGGVVQPGRSLTPSCSASGFSIRSYDIHWVRQAPGKGLEWVATISYDGSQKYFADSVKGRFTIFRDESENMVYLQMSGLRVEDTAVYHCARGSSGHYEAFDIWGQGTMVTVSSGGGGSGGGGSGGGGSQSVLTQPPSVSAAPGQKVTISCSGSSSNIGNNYVSWYQQLPGTAPKLLIYDNNKRPSGIPDRFSGSKSGTSATLGITGLQTGDEADYYCGTWDSSLSAPWVFGGGTKVTVLGAAAGAGGDYKDDDDKGAAAHHHHHH
Output: 0.73
